Data origin, for the record: patent US20230015823A1

- TEST: Phase 1 study of a single oral dose of voxelotor in subjects with hepatic impairment: whole blood and plasma PK
- Format: in vivo, human
- TEST CONTEXT: human, whole blood, po, 1500 mg, whole blood; mild hepatic impairment; 1500 mg single oral dose; read-out: AUC0-96, GM (converted)
QUANTITY KIND: AUC(0-t) (µg·h/mL)
The figure you give is taken to be in µg·h/mL; do not add the unit.

Q: Item "CC(C)n1nccc1-c1ncccc1COc1cccc(O)c1C=O" has what recorded AUC(0-t)?
Result: 5160

---

- TEST: Phase 1 study of a single oral dose of voxelotor in subjects with hepatic impairment: whole blood and plasma PK
- Assay type: in vivo, human
- TEST CONTEXT: human, plasma, oral, 600 mg, plasma; severe hepatic impairment (Test); 600 mg, adjusted for dose to 1500 mg; read-out: AUCt, Geometric LS Mean
QUANTITY KIND: AUC(0-t) (µg·h/mL)
The figure you give is taken to be in µg·h/mL; do not add the unit.

Q: Item "CC(C)n1nccc1-c1ncccc1COc1cccc(O)c1C=O" has what recorded AUC(0-t)?
Result: 388
